Task for the reader: assign each of the following compounds its reported Population Hoechst High Intensity Objects (%).
# System: U2OS
# test_name: Multiplex assay against U2OS
# Format: toxicity, cell-based
# recorded_conditions: human, 12 h, 10 µM, compound concentration 10 uM
A complete answer gives the number and then names the unit.

Query block: Dear colleague, I am looking for the recorded Population Hoechst High Intensity Objects (%) of the following compound: CCC(=O)OCC(=O)[C@@]1(OC(=O)CC)[C@@H](C)C[C@H]2[C@@H]3CCC4=CC(=O)C=C[C@]4(C)[C@@]3(Cl)[C@@H](O)C[C@@]21C [BECLOMETHASONE DIPROPIONATE]
Result block: 4%

Query block: Dear colleague, I am looking for the recorded Population Hoechst High Intensity Objects (%) of the following compound: CNc1nc(NCc2ncccn2)c2c(-c3ccc4ncccc4c3)c[nH]c2n1
Result block: 0%

Query block: Dear colleague, I am looking for the recorded Population Hoechst High Intensity Objects (%) of the following compound: CN(C)CCOc1ccc(/C(=C(/CCCO)c2ccccc2)c2ccc(O)cc2)cc1
Result block: 0%

Query block: Dear colleague, I am looking for the recorded Population Hoechst High Intensity Objects (%) of the following compound: O=C(Nc1ccccc1Br)N[C@@H]1CCN(c2ccc(C(F)(F)F)cn2)C1 [SB-705498]
Result block: 0%
